Values compiled from the supplement of paper PMC10567573.

B1: FAM164A (parent)
chain: YDPDYIQCPYCQRRFNENAADRHI

variants of: B1; assay: protein stability index of a GFP-peptide fusion (GPS, HEK-293T) (PSI 1-6); higher = more stable; details: c terminus: a fixed tail appended;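 also: lentivirally expressed fusions sorted by FACS into six bins by GFP to DsRed ratio, PSI derived from sequencing read proportions per bin multiplied by bin number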
The label depends only on protein stability index: MET if it is at least 4, NOT MET if it is smaller.

# chain-sequence, category
data = [
    ("YDPDYIQCPYCQRRFNENHADRHI [A19H]", "MET"),
    ("YDPDYIQCPYCQRRFNENACDRHI [A20C]", "MET"),
    ("YDPDYIQCPYCQRRSNENAADRHI [F15S]", "NOT MET"),
    ("YDPDYIQCPYCQRRFNENFADRHI [A19F]", "MET"),
    ("CDPDYIQCPYCQRRFNENAADRHI [Y1C]", "NOT MET"),
    ("YDPDYIQCPYCQRRFQENAADRHI [N16Q]", "MET"),
    ("YQPDYIQCPYCQRRFNENAADRHI [D2Q]", "NOT MET"),
    ("YDPDYIQCVYCQRRFNENAADRHI [P9V]", "NOT MET"),
    ("YDPDYIQCPYCQRRFNENAADRHQ [I24Q]", "MET"),
    ("EDPDYIQCPYCQRRFNENAADRHI [Y1E]", "MET"),
    ("YDPDYIQCLYCQRRFNENAADRHI [P9L]", "NOT MET"),
    ("YDPDYIQCPYCQRRFGENAADRHI [N16G]", "NOT MET"),
    ("YDPDIIQCPYCQRRFNENAADRHI [Y5I]", "MET"),
    ("YDPDYIQCPYCQARFNENAADRHI [R13A]", "NOT MET"),
    ("YDPDYIQCPKCQRRFNENAADRHI [Y10K]", "NOT MET"),
    ("YDGDYIQCPYCQRRFNENAADRHI [P3G]", "MET"),
    ("YDPDYIQCPYCQRWFNENAADRHI [R14W]", "MET"),
    ("YDPDYIQCPYCQRRCNENAADRHI [F15C]", "NOT MET"),
]
